Entry source: patent US11578084B2

// values below are reported Ki
- target: human recombinant dopamine D3 receptor (Homo sapiens (Human))
- Sequence (P35462 whole entry): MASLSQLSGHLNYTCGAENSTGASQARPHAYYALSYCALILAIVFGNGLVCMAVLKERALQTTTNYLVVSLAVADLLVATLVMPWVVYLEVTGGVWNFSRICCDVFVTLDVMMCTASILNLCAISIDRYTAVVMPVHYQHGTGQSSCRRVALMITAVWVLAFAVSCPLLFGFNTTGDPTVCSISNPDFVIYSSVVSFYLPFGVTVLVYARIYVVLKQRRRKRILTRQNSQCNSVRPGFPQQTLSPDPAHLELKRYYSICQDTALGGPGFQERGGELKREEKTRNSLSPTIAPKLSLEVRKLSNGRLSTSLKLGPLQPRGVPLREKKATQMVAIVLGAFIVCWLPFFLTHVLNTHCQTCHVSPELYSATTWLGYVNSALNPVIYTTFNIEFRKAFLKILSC
- procedureDetails: Test of binding inhibition for dopamine D3 receptor ([3H]-Methylspiperone SPA)
- conditions: Jump-In HEK cell membranes, 2 nM [3H]-Methylspiperone, 120 min at 25° C.; read-out: hD3_Ki

compound | target | Ki, pM
O=C(N[C@H]1CC[C@](F)(CCN2CCc3nc(OCC(F)(F)F)sc3CC2)CC1)c1cccnc1C(F)F | human recombinant dopamine D3 receptor (Homo sapiens (Human)) | 360
Cn1cc(CC(=O)N[C@H]2CC[C@H](CCN3CCc4ccc(OCC(F)F)nc4CC3)CC2)c(F)n1 | human recombinant dopamine D3 receptor (Homo sapiens (Human)) | 160
Cc1ncc(CC(=O)N[C@H]2CC[C@H](CCN3CCc4ccc(CCC(F)(F)F)nc4CC3)CC2)o1 | human recombinant dopamine D3 receptor (Homo sapiens (Human)) | 230
Cn1c(C(=O)NN2CCC(CCN3CCc4sc(OCC(F)(F)F)nc4C3)CC2)cccc1=O | human recombinant dopamine D3 receptor (Homo sapiens (Human)) | 810
Cc1ncc(/C=C/C(=O)NC23CCC(CCN4CCc5nc(OCC(F)(F)F)sc5CC4)(CC2)CC3)cn1 | human recombinant dopamine D3 receptor (Homo sapiens (Human)) | 160
Cn1ncc(CC(=O)N[C@H]2CC[C@H](CCN3CCc4nc(OCC(F)F)sc4CC3)CC2)n1 | human recombinant dopamine D3 receptor (Homo sapiens (Human)) | 190
Cn1cc2c(C(=O)N[C@H]3CC[C@H](CCN4CCc5ccc(OC6CCC(F)(F)C6)nc5CC4)CC3)cccc2n1 (some centres unmarked) | human recombinant dopamine D3 receptor (Homo sapiens (Human)) | 180
Cn1nnc2cccc(C(=O)N[C@H]3CC[C@H](CCN4CCc5nc(OCC(C)(F)F)sc5CC4)CC3)c21 | human recombinant dopamine D3 receptor (Homo sapiens (Human)) | 130
Cn1cc(OCC(=O)N[C@H]2CC[C@](F)(CCN3CCc4nc(OCC(C)(F)F)sc4CC3)CC2)cn1 | human recombinant dopamine D3 receptor (Homo sapiens (Human)) | 220
Cn1ncc(CC(=O)N[C@H]2CC[C@](F)(CCN3CCc4nc(OCC(F)F)sc4CC3)CC2)c1F | human recombinant dopamine D3 receptor (Homo sapiens (Human)) | 3100
Cc1nc(CC(=O)N[C@H]2CC[C@](F)(CCN3CCc4nc(OCCC(F)(F)F)sc4CC3)CC2)no1 | human recombinant dopamine D3 receptor (Homo sapiens (Human)) | 590
Cc1ncccc1C(=O)NC12CCC(CCN3CCc4ccc(OCC(F)F)nc4CC3)(CC1)CC2 | human recombinant dopamine D3 receptor (Homo sapiens (Human)) | 560
O=C(N[C@H]1CC[C@H](CCN2CCc3nc(OC4CC(F)(F)C4)sc3CC2)CC1)c1cccnc1C(F)F | human recombinant dopamine D3 receptor (Homo sapiens (Human)) | 310
Cc1nnc(CC(=O)N[C@H]2CC[C@H](CCN3CCc4ccc(O[C@H](C)C(F)(F)F)nc4CC3)CC2)s1 | human recombinant dopamine D3 receptor (Homo sapiens (Human)) | 85
CC[C@@H](C)Oc1ccc2c(n1)CCN(CC[C@]1(F)CC[C@@H](NC(=O)Cc3nnc(C)s3)CC1)CC2 | human recombinant dopamine D3 receptor (Homo sapiens (Human)) | 260
CC[C@@H](C)Oc1ccc2c(n1)CCN(CC[C@H]1CC[C@H](NC(=O)c3cccc4nn(C)cc34)CC1)CC2 | human recombinant dopamine D3 receptor (Homo sapiens (Human)) | 100
Cc1nnc(CC(=O)N[C@H]2CC[C@H](CCN3CCc4nc(OCCC(F)(F)F)sc4CC3)CC2)o1 | human recombinant dopamine D3 receptor (Homo sapiens (Human)) | 720
COC(CN1CCc2ccc(OCC(F)(F)F)nc2CC1)[C@H]1CC[C@H](NC(=O)Cc2cnc(C)o2)CC1 (single isomer, unassigned) | human recombinant dopamine D3 receptor (Homo sapiens (Human)) | 810
Cn1cc2c(C(=O)NN3CCC(F)(CCN4CCc5sc(OCC(F)(F)F)nc5C4)CC3)cccc2n1 | human recombinant dopamine D3 receptor (Homo sapiens (Human)) | 410
Cc1c(F)cccc1C(=O)N[C@H]1CC[C@H](CCN2CCc3nc(OCC(C)(F)F)sc3CC2)OC1 | human recombinant dopamine D3 receptor (Homo sapiens (Human)) | 260
Cn1cc(CC(=O)N[C@H]2CC[C@H](CCN3CCc4ccc(CCC(F)(F)F)nc4CC3)CC2)c(F)n1 | human recombinant dopamine D3 receptor (Homo sapiens (Human)) | 380
Cc1cc(CC(=O)N[C@H]2CC[C@H](CCN3CCc4ccc(CCC(F)(F)F)nc4CC3)CC2)no1 | human recombinant dopamine D3 receptor (Homo sapiens (Human)) | 1000
CCn1c(C(=O)N[C@H]2CC[C@H](CCN3CCc4ccc(OCC(F)F)nc4CC3)CC2)cccc1=O | human recombinant dopamine D3 receptor (Homo sapiens (Human)) | 160
CC(F)(F)COc1nc2c(s1)CCN(CC[C@]1(F)CC[C@@H](NC(=O)c3cccnc3C(F)F)CC1)CC2 | human recombinant dopamine D3 receptor (Homo sapiens (Human)) | 560
Cc1cc2c(C(=O)N[C@H]3CC[C@](F)(CCN4CCc5nc(OCC(F)F)sc5CC4)CC3)cccn2n1 | human recombinant dopamine D3 receptor (Homo sapiens (Human)) | 470
Cc1ncccc1C(=O)N[C@H]1CC[C@H](CCN2CCc3ccc(OCC(F)F)nc3CC2)CC1 | human recombinant dopamine D3 receptor (Homo sapiens (Human)) | 280
Cn1cc(CC(=O)N[C@H]2CC[C@](F)(CCN3CCc4ccc(OCC(F)F)nc4CC3)CC2)cn1 | human recombinant dopamine D3 receptor (Homo sapiens (Human)) | 230
CN1Cc2c(C(=O)N[C@H]3CC[C@H](CCN4CCc5sc(OC6CC(F)(F)C6)nc5C4)CC3)cccc2C1=O | human recombinant dopamine D3 receptor (Homo sapiens (Human)) | 200
Cn1c(C(=O)N[C@H]2CC[C@](F)(CCN3CCc4ccc(OCC(F)F)nc4CC3)CC2)cccc1=O | human recombinant dopamine D3 receptor (Homo sapiens (Human)) | 360
